Assay: A549 cell viability effects, profiling panel, calcein-AM fluorescence, 48 h, basal (AID 1162); note: test concentration not given here
Settings: higher = more signal
experimentalReadout: z-score
Please give only the number in your answer, with no unit.

Input CC1CC/C=C\[C@H]2OC34C=CCN(C(C)(C)C)C(=O)[C@H]3N(C(CO)C(C)C)C(=O)[C@@H]4C2C(=O)O1 (stereo not given in full) , output reported z-score.
0.0643

Input COCCOC(=O)N1C(=O)[C@@]2(c3ccccc31)[C@H](c1ccccc1OCCO)N1[C@H](c3ccccc3)[C@H](c3ccccc3)OC(=O)[C@H]1[C@@H]2C(N)=O , output reported z-score.
-1.59

Input O=C1C2C=CC(C(O)c3cc(C(F)(F)F)cc(C(F)(F)F)c3)N(Nc3ccccc3F)C2C(=O)N1c1ccccc1 (stereo not given) , output reported z-score.
-1.28

Input C=C(/C(=C/C[C@@H](OC(C)=O)c1ccc(CO)o1)c1cc(C(=O)OC)ccc1OC)C(C)C , output reported z-score.
1.62

Input COC(=O)C(CC#Cc1ccc2c(c1)[C@]1(C(=O)N2)[C@H](c2ccc(OCCO)cc2)N2[C@H](c3ccccc3)[C@H](c3ccccc3)OC(=O)[C@H]2[C@@H]1C(=O)N1CCN(c2ncccn2)CC1)C(=O)OC , output reported z-score.
-0.824

Input CCCCC(=O)N(CCN1CCOCC1)[C@@H]1CC(C(=O)NCCO)=C[C@H](Oc2c(I)cc(CO)cc2OC)[C@H]1O , output reported z-score.
1.5

Input NC(=O)[C@H]1[C@@H]2C(=O)O[C@@H](c3ccccc3)[C@@H](c3ccccc3)N2[C@@H](c2ccc(O)cc2)[C@]12C(=O)Nc1ccccc12 , output reported z-score.
-0.265

Input C=C(COC)/C(=C/C[C@@H](OC(C)=O)c1ccc(CO)o1)c1cc(C(=O)OC)ccc1OC , output reported z-score.
-0.109

Input COC(=O)[C@@]1(Cc2ccccc2)[C@H]2c3cc(C(=O)N4CCCC4)n(CCSCCO)c3C[C@H]2CN1C(=O)c1ccccc1 , output reported z-score.
-0.52

Input COCC(=C=CC[C@@H](O)c1ccc(OCCO)cc1)CCO , output reported z-score.
1.46

Input COc1cc(NN2C(C(O)c3cc(OC)c(OC)c(OC)c3)C=CC3C(=O)N(c4ccccc4)C(=O)C32)cc(OC)c1OC (stereo not given) , output reported z-score.
-0.94

Input COCCOC(=O)N1C(=O)[C@@]2(c3cc(C#CCNC(N)=O)ccc31)[C@H](c1ccc(O)cc1)N1[C@H](c3ccccc3)[C@H](c3ccccc3)OC(=O)[C@H]1[C@@H]2C(N)=O , output reported z-score.
1.66

Input Cc1ccccc1C(O)C1C=CC2C(=O)N(c3ccccc3)C(=O)C2N1Nc1ccc([N+](=O)[O-])cc1 (stereo not given) , output reported z-score.
-1.06

Input COCCOC(=O)N1C(=O)[C@@]2(c3cc(C#CCNC(N)=O)ccc31)[C@H](c1ccc(OCCO)cc1)N1[C@H](c3ccccc3)[C@H](c3ccccc3)OC(=O)[C@H]1[C@@H]2C(N)=O , output reported z-score.
0.586

Input CC(C)C(=C=CC[C@@H](O)c1cccc(OCCO)c1)C[C@@H](O)c1ccccn1 , output reported z-score.
-0.171

Input COc1cc(C(O)C2C=CC3C(=O)N(Cc4ccccc4)C(=O)C3N2n2cnnc2)cc(OC)c1OC (stereo not given) , output reported z-score.
1.39

Input C=CCNC(=O)[C@@H]1[C@H]2C(=O)O[C@H](c3ccccc3)[C@H](c3ccccc3)N2[C@H](c2ccc(O)cc2)[C@@]12C(=O)N(C(=O)OCCOC)c1ccc(C#CCCO)cc12 , output reported z-score.
2.21

Input O=C1OCC=C[C@H]2OC34C=CCN(c5ccc6ccccc6c5)C(=O)[C@H]3N(CCCCCO)C(=O)[C@@H]4[C@@H]12 (stereo not given in full) , output reported z-score.
-0.381

Input COC(=O)[C@@]1(Cc2ccc(OC)cc2)[C@H]2c3cc(C(=O)N4CCCC4)n(Cc4cc(C)n(C)n4)c3C[C@H]2CN1C(=O)c1ccccc1 , output reported z-score.
-0.0671

Input CO[C@H]1O[C@H](CO)[C@@H](OC(=O)Nc2cccc(F)c2)[C@H](OC(=O)Nc2ccccc2-c2ccccc2)[C@H]1OC(=O)Nc1ccccc1-c1ccccc1 , output reported z-score.
-4.26

Input COCCOC(=O)N1C(=O)[C@@]2(c3cc(C#CCNC(N)=O)ccc31)[C@H](c1ccc(O)cc1)N1[C@H](c3ccccc3)[C@H](c3ccccc3)OC(=O)[C@H]1[C@@H]2C(=O)N1CCN(c2ncccn2)CC1 , output reported z-score.
-0.652

Input COc1cc(CO)cc(I)c1O[C@H]1C=C(C(=O)NCCO)C[C@@H](NCC2CCCCC2)[C@@H]1O , output reported z-score.
1.31

Input CCCCCN1CC=CC23O[C@@H]4/C=C\CCC(C)OC(=O)C4[C@H]2C(=O)N(CCCCCCO)[C@@H]3C1=O (stereo not given in full) , output reported z-score.
0.29

Input C=C(C)[C@@H]1CC=C(C(O)C2C=CC3C(=O)N(c4ccccc4)C(=O)C3N2Nc2ccc(C#N)cc2)CC1 (stereo not given in full) , output reported z-score.
-0.391

Input CC1(C)C(=O)C(c2ccccc2)=C2CN3C(=O)N(CCc4ccccc4)C(=O)C3(Cc3ccc(F)cc3)C=C21 (stereo not given) , output reported z-score.
-0.767

* * *

Experiment: CREB reporter modulators under forskolin, primary screen, cell-based, PC12, CRE-LacZ reporter, forskolin-stimulated (AID 1146);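 note: PC12 cells with 6xCRE LacZ reporter stimulated by forskolin 10 µM; beta-galactosidase reporter signal reflecting CREB driven transcription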
Settings: luminescence, 4.5 h, higher = more signal, called active from +8 up or from −8 down
experimentalReadout: z-score
Please give only the number in your answer, with no unit.

Input Cc1ccc(S[C@]2(C(=O)NCc3ccccc3)CC(=O)N(Cc3cc(C(F)(F)F)cc(C(F)(F)F)c3)[C@@H]2c2ccc(CO)cc2I)cc1 , output reported z-score.
0.279

Input COC(=O)[C@@]1(Cc2ccccc2)[C@H]2c3cc(C(=O)N(C)C)n(CCn4cc([N+](=O)[O-])nc4C)c3C[C@H]2CN1C(=O)c1ccccc1 , output reported z-score.
1.45

Input CCN(CC)c1ccc(N2CC=CC34O[C@@H]5/C=C\CCC(C)OC(=O)C5[C@H]3C(=O)N(C(C)CO)[C@@H]4C2=O)cc1 (stereo partly drawn) , output reported z-score.
0.46

Input CCCNC(=O)[C@@]1(C)c2ccccc2C(=O)N(Cc2ccccc2)[C@H]1c1ccc(CO)cc1 , output reported z-score.
-0.163

Input C[C@]1(C(=O)NCC(F)(F)F)c2ccccc2C(=O)N(Cc2ccccc2)[C@H]1c1ccc(CO)cc1 , output reported z-score.
0.112

Input COC(=O)[C@@]1(Cc2ccc(F)cc2)[C@H]2c3cc(C(=O)N4CCCC4)n(C)c3C[C@H]2CN1C(=O)c1ccccc1 , output reported z-score.
0.736

Input CC(C)C(=C=CC[C@@H](O)c1cccc(OCCO)c1)C[C@@H](O)COCc1ccccc1 , output reported z-score.
-1

Input O=C1C2C=CC(C(O)c3cc(C(F)(F)F)cc(C(F)(F)F)c3)N(Nc3ccccc3F)C2C(=O)N1c1ccccc1 (stereo not drawn) , output reported z-score.
-0.0442

* * *

I'd be grateful if you could share measured z-score for these entries.
Assay: basal HepG2 mitochondrial membrane potential changes, profiling panel, cell-based, JC-1 fluorescence, 24 h, 100 nL compound (AID 1167); note: test concentration not given here
Conditions: higher = more signal
Please give only the number in your answer, with no unit.

Input O=C1C2C=CC(C(O)c3cccc(O)c3)N(Nc3ccccc3)C2C(=O)N1c1ccccc1 (stereo not drawn) , output reported z-score.
-2.04

Input C=C(COC)/C(=C/C[C@@H](OC(C)=O)c1ccc(CO)o1)c1cc(C(=O)OC)ccc1OC , output reported z-score.
0.0492

Input COCCCNC(=O)[C@@]1(c2ccc([N+](=O)[O-])cc2)CC(=O)N(CC23CC4CC(CC(C4)C2)C3)[C@@H]1c1ccc(CO)cc1I , output reported z-score.
2.16

Input COC(=O)C1=CC(CCCO)=CC(C)N(Cc2cccc(OC(F)(F)F)c2)C=C1C(=O)OC (stereo not drawn) , output reported z-score.
1.12

Input CCOC(=O)C1=CCC(c2ccccc2)N(S(=O)(=O)c2ccc([N+](=O)[O-])cc2)C1 (stereo not drawn) , output reported z-score.
-1.73

Input CN1C=C(C(=O)OCCS(C)(=O)=O)C(C(=O)OCCS(C)(=O)=O)=CC(c2ccc(CO)cc2)=CC1c1cccs1 (stereo not drawn) , output reported z-score.
-0.963

Input COC(=O)C1N=C(c2ccc(OCCCO)cc2)N(c2ccccc2)O1 (stereo not drawn) , output reported z-score.
0.684

Input C=C(C(=O)CC[C@H](OC(=O)c1ccccc1-c1ccccc1C(=O)O)c1ccccc1OCCO)C(C)C , output reported z-score.
-0.266
